- System: SF-295
- method-summary: NCI tumour cell line growth inhibition, 48 h
Activity calls are given as the source filed them. No stated cut-off is given here; in the data, active = GI50 up to about 1.1 µM and inactive = higher.

[
  {
    "compound": "COc1c(OC2OC(CO)C(O)C(O)C2O)cc2c(c1OC)-c1ccc(OC)c(=O)cc1C(NC(C)=O)CC2 (stereo not drawn)",
    "GI50": "> 87.3 µM (inactive)"
  },
  {
    "compound": "COc1cc2c(c(OC3OC(CO)C(O)C(O)C3O)c1)C(=O)CC(c1ccc(O)cc1)O2 (stereo not drawn)",
    "GI50": "> 100 µM (inactive)"
  },
  {
    "compound": "CC(C)C(=O)C(C)(C)CCc1ccccn1",
    "GI50": "> 100 µM (inactive)"
  },
  {
    "compound": "CCn1c2ccccc2c2cc(Nc3cc(C)[nH]c(=O)n3)ccc21",
    "GI50": "4.53 µM (inactive)"
  },
  {
    "compound": "CCOC(=O)C1=C(Nc2cccc(OC)c2)OCC1=O",
    "GI50": "> 100 µM (inactive)"
  },
  {
    "compound": "O=C1C=CC2(O[C@H](c3ccccc3)[C@@H](c3ccccc3)O2)C(SC(=O)c2ccccc2)C1 (stereo partly drawn)",
    "GI50": "2.91 µM (inactive)"
  },
  {
    "compound": "Oc1cccc2c1NC1=C(CCC/C1=C\\c1ccccc1)C2",
    "GI50": "71.8 µM (inactive)"
  },
  {
    "compound": "Cc1c2c(c(C)n1-c1ccccc1)C(=O)N(CCN1CCN(c3cccc(C(F)(F)F)c3)CC1)C2=O",
    "GI50": "50.1 µM (inactive)"
  },
  {
    "compound": "COc1c2c(cc3c1C(=O)c1c(O)cccc1C3=O)CC(O)CC2 (stereo not drawn)",
    "GI50": "19.2 µM (inactive)"
  },
  {
    "compound": "COc1ccccc1N/C(=C\\C(=O)C(=O)NC12CC3CC(CC(C3)C1)C2)c1ccccc1",
    "GI50": "> 10 µM (inactive)"
  },
  {
    "compound": "CCCCCCOc1ccc(NC2=C(Cl)C(=O)c3cccnc3C2=O)cc1",
    "GI50": "3.65 µM (inactive)"
  },
  {
    "compound": "COc1cc2c3c4[n+](cc2c(OC)c1OC)CCC4CCC3 (stereo not drawn)",
    "GI50": "> 100 µM (inactive)"
  },
  {
    "compound": "O=C1/C(=C\\c2ccc([N+](=O)[O-])cc2)N(S(=O)(=O)c2ccccc2)c2ncccc21",
    "GI50": "28.2 µM (inactive)"
  },
  {
    "compound": "COc1cc(C#CC(=O)OC/C=C/c2ccc3c(c2)OCO3)cc(OC)c1OC",
    "GI50": "36.1 µM (inactive)"
  },
  {
    "compound": "Cn1c(=O)ccc2cc(C(=O)c3ccccc3)ccc21",
    "GI50": "79.3 µM (inactive)"
  },
  {
    "compound": "CC(C)CC(NC(=O)C(CSc1ccc([N+](=O)[O-])cc1)Cc1ccccc1)C(=O)Nc1ccccc1 (stereo not drawn)",
    "GI50": "39.1 µM (inactive)"
  },
  {
    "compound": "O=C(NCC(O)COc1ccccc1)c1ccccc1O (stereo not drawn)",
    "GI50": "> 100 µM (inactive)"
  },
  {
    "compound": "O=[N+]([O-])C1CC/C(=N/O)c2nonc21 (stereo not drawn)",
    "GI50": "> 10 µM (inactive)"
  }
]

// data source = ChEMBL document CHEMBL1201862
